Test system: Plasmodium falciparum
Experiment: GSK_TCMDC: Inhibition of Plasmodium falciparum 3D7 in whole red blood cells, using parasite LDH activity as an index of growth. Test compounds present at 2uM
Assay type: functional
observed.property: Inhibition (%)
Response body: numeric value in %, unit text excluded.

Illustrative cases are given below, each with its answer.
>  <molecule>
CC(C)CCNc1nc(NCCCc2ccccc2)c2cc(O)ccc2n1

>  <measurement.unit>
%

>  <observed.measurement>
100

$$$$
>  <molecule>
CCOc1ccc(-c2nonc2NC(=O)c2ccc(OC(C)C)cc2)cc1OCC

>  <measurement.unit>
%

>  <observed.measurement>
100

$$$$
>  <molecule>
CCN1CCc2c1cc(C(=O)N[C@@H](Cc1ccccc1)[C@H](O)CNC(C)(C)c1cccc(C(F)(F)F)c1)cc2N1CCCCS1(=O)=O

>  <measurement.unit>
%

>  <observed.measurement>
100

$$$$

Enquiry: Which measured Inhibition belongs to "O=C(O)C(F)(F)F.c1ccc2c(c1)CN(CC1CC1)CC1(CCN(Cc3c[nH]c4cnccc34)CC1)O2" , tested on Plasmodium falciparum?
Return: 100

Enquiry: Item "CS(=O)(=O)Nc1ccc(-c2cnc3[nH]cc(-c4ccc(C(=O)O)cc4)c3c2)cc1" with Plasmodium falciparum - Inhibition?
Return: 95

Enquiry: Form: Entry = CCn1cc(C=C2Oc3c(ccc(O)c3CN3CCCCC3C)C2=O)c2ccccc21 (stereo not drawn) | System = Plasmodium falciparum | Inhibition = ____
Return: 94
